TESTED_ON: human AspH (His6-AspH315–758) (Homo sapiens, UniProt Q12797)
Construct: N-Terminally His6-tagged human AspH315–758 (His6-AspH315–758) was produced in Escherichia coli BL21 (DE3) cells; made in house; host or cells: Escherichia coli BL21 (DE3), pET-28a(+) vector
Sequence (Q12797 315-758): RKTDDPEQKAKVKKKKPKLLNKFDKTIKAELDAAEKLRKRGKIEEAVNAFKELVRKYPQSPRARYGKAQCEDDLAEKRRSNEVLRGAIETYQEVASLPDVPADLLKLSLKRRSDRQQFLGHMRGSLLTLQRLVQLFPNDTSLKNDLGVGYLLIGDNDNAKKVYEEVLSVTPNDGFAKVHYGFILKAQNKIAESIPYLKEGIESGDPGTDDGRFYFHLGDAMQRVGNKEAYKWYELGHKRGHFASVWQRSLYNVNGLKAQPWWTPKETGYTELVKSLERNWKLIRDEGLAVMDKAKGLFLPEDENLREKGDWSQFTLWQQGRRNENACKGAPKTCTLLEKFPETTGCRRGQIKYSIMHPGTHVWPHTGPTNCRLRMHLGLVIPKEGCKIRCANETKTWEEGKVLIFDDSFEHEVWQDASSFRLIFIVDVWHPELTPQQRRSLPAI
PROTOCOL_SUMMARY: SPE-MS AspH inhibition assay (hFX-CP101-119 substrate hydroxylation)
Type: biochemical
DETAILS: AspH-inhibitor screening, Plate 1-duplicate, substrate conversion
Where a name gives a salt, the structure may show the parent alone.
ENDPOINT_NAME: Plate 1-duplicate (% conversion) (%)

Examples with their reported Plate 1-duplicate (% conversion) follow.
- COMPOUND: "COc1cc(Nc2ncc3c(n2)-c2ccc(Cl)cc2C(c2c(F)cccc2OC)=NC3)ccc1C(=O)O"
  TESTED_ON: "human AspH (His6-AspH315–758) (Homo sapiens, UniProt Q12797)"
  NUMERIC_VALUE: 48.51
- COMPOUND: "Cc1cc(Nc2nc(N[C@@H](C)c3ncc(F)cn3)ncc2Cl)n[nH]1"
  TESTED_ON: "human AspH (His6-AspH315–758) (Homo sapiens, UniProt Q12797)"
  NUMERIC_VALUE: 49.01
- COMPOUND: "Cc1ccc(-c2cc(C(F)(F)F)nn2-c2ccc(S(N)(=O)=O)cc2)cc1"
  TESTED_ON: "human AspH (His6-AspH315–758) (Homo sapiens, UniProt Q12797)"
  NUMERIC_VALUE: 59.65
- COMPOUND: "Nc1ccccc1NC(=O)c1ccc(CNc2nccc(-c3cccnc3)n2)cc1"
  TESTED_ON: "human AspH (His6-AspH315–758) (Homo sapiens, UniProt Q12797)"
  NUMERIC_VALUE: 48.76
- COMPOUND: "CC(O)(CS(=O)(=O)c1ccc(F)cc1)C(=O)Nc1ccc(C#N)c(C(F)(F)F)c1 (centres unmarked) [Bicalutamide]"
  TESTED_ON: "human AspH (His6-AspH315–758) (Homo sapiens, UniProt Q12797)"
  NUMERIC_VALUE: 52.04

[a] Cn1cc(C[C@@H](N)C(=O)O)c2ccccc21
[b] CC(C)C[C@H](NC(=O)CNC(=O)c1cc(Cl)ccc1Cl)B1OC(=O)C(CC(=O)O)(CC(=O)O)O1 [Ixazomib citrate]
Prompt: Could you kindly indicate whether a or b has the higher Plate 1-duplicate (% conversion) value? Record your answer as the label of the chosen record.
Response: a
(a: 47.55%, b: 15.87%)

Each recorded value in this set is attributed to paper PMC7588595.
